# System: NCI-H522 lung
# RUN_DESCRIPTION: NCI tumour cell line growth inhibition, 48 h; in the data active = GI50 below about 0.43 µM; inactive = the rest
Bench note: report the call from TRUE for active, FALSE for inactive

Data request: Any idea what this test logged for `CC(=O)/C=C/C1=C(c2ccsc2)c2ccccc2CC1` ?
Data returned: FALSE

Data request: Any idea what this test logged for `CC[C@H](C)[C@H](NC(=O)C12CC(NC(C)=O)(C1)C2)C(=O)N(C)[C@H](C[C@@H](OC(C)=O)c1nc(C(=O)N[C@@H](Cc2ccccc2)C[C@H](C)C(=O)OC)cs1)C(C)C` ?
Data returned: TRUE

Data request: Any idea what this test logged for `Oc1[nH]c2ccc(Cl)cc2c1/C=c1/ccc2c(c1)N=C(c1cc(F)cc(F)c1)N=2` ?
Data returned: FALSE

Data request: Any idea what this test logged for `CN(C)CCOc1nc2ccccc2c2c1-c1ccc(Cl)cc1C2=O` ?
Data returned: FALSE
